# Test Description: Quantitative High-Throughput drug screen in 47 multiple myeloma cell lines against the NCATS MIPE library collection: EJM_DSMZ cell viability assay (AID 1918926; further: nearly all actives have a fitted effect of over 30% in size)
# Test Parameters: EJM myeloma cell viability, CellTiter-Glo ATP, 48 h; series mostly up to 45.8 µM
Results filed as inconclusive are left out. Activity calls are given as the source filed them. The call rests on the fitted dose curve; in most records, active means well fitted cell-killing curve with a large enough effect; inconclusive means small, poorly fitted or top-dose-only effect, or effect the other way; inactive means no such curve, though single readings can be large or run the other way.
Response enum: active, inactive

Query :: Hey, what did the test say about `CC[C@@]1([C@@H]2O[C@@H]([C@H]3O[C@@](O)(CO)[C@H](C)C[C@H]3C)C[C@H]2C)CC[C@H]([C@]2(C)CC[C@]3(C[C@H](O)[C@@H](C)[C@@H]([C@@H](C)[C@@H](OC)[C@H](C)C(=O)O)O3)O2)O1` ?
Result :: active

Query :: Hey, what did the test say about `CC[C@H]1OC(=O)[C@H](C)[C@@H](O[C@H]2C[C@@](C)(OC)[C@@H](O)[C@H](C)O2)[C@H](C)[C@@H](O[C@@H]2O[C@H](C)C[C@H](N(C)C)[C@@H]2O)[C@](C)(OC)C[C@@H](C)C(=O)[C@H](C)[C@@H](O)[C@]1(C)O` ?
Result :: inactive

Query :: Hey, what did the test say about `N#CC(=Cc1ccc(O)c(O)c1)C(=O)NCc1ccccc1` ?
Result :: active

Query :: Hey, what did the test say about `O=C(C[C@@H]1CC=CCCC(=O)O[C@H](c2ccccc2)CNC1=O)NCc1ccc(Cl)cc1` ?
Result :: active

Query :: Hey, what did the test say about `CC(C)(O)CC[C@@H](O)[C@](C)(O)[C@H]1CC[C@@]2(O)C3=CC(=O)[C@@H]4C[C@@H](O)[C@@H](O)C[C@]4(C)[C@@H]3CC[C@]12C` ?
Result :: inactive

Query :: Hey, what did the test say about `C=C(C)[C@@H]1CC[C@]2(C(=O)O)CC[C@]3(C)[C@H](CC[C@@H]4[C@@]5(C)CC[C@H](O)C(C)(C)[C@@H]5CC[C@]43C)[C@@H]12` ?
Result :: inactive

Query :: Hey, what did the test say about `CC(C=CC1=C(C)CCCC1(C)C)=CC=CC(C)=CC(=O)Nc1ccc(O)cc1` ?
Result :: active

* * *

# Test Description: qHTS of pediatric cancer cell lines to identify multiple opportunities for drug repurposing: Primary screen for OHS-50 cells (AID 1347103); further: nearly all actives have a fitted effect of over 40% in size; further: potency means the concentration at half of the fitted maximal effect
# Test Parameters: OHS-50 osteosarcoma viability, CellTiter-Glo luminescence, 48 h; series mostly up to 57.3 µM
Inconclusive results are not listed. Activity calls are given as the source filed them. Calls follow the shape of the dose curve; as a rule, active = well fitted cell-killing curve with a large enough effect; inconclusive = small, poorly fitted or top-dose-only effect; inactive = no such curve, though single readings can be large or run the other way. Starred links: 1 amine or outer side, 2 acyl side, 3 side chain; linkers in the order of their positions; H or OH if unused. Positions of bridges follow the written chain, without caps; N, C: chain ends. Non-standard residues stand in square brackets, D forms with d. Residues, ends and D or L forms follow the SMILES beside them. Chains are numbered I, II in the order given. Actinocin(9to1) = Cc1c2oc3c(C)ccc(C(=O)[*:1])c3nc-2c(C(=O)[*:2])c(N)c1=O; NMeV = CN[CH](C(=O)O)C(C)C; Sar = CNCC(=O)O
Readout Type: Potency

Some solved entries appear below for comparison.
[[record]]
compound = "O=C(CN1C(=O)C2(CCCC2)NC[C@H]1c1cc(F)cc(F)c1)Nc1ccc2c(c1)C[C@@]1(C2)C(=O)Nc2ncccc21"
experimental_value = "inactive"

[[record]]
compound = "Cc1c2oc3c(C)ccc(C(=O)NC4C(=O)NC(C(C)C)C(=O)N5CCCC5C(=O)N(C)CC(=O)N(C)C(C(C)C)C(=O)OC4C)c3nc-2c(C(=O)NC2C(=O)NC(C(C)C)C(=O)N3CCCC3C(=O)N(C)CC(=O)N(C)C(C(C)C)C(=O)OC2C)c(N)c1=O (stereo not drawn) (I: TVP[Sar][NMeV] / II: TVP[Sar][NMeV]; ester I:1-I:C, II:1-II:C; linker I:N-II:N via Actinocin(9to1); configuration not given here)"
experimental_value = "0.001 µM (active)"

[[record]]
compound = "COc1ccc2c(c1OC)C(=O)OC2[C@H]1c2c(cc3c(c2OC)OCO3)CCN1C (stereo partly drawn)"
experimental_value = "0.137 µM (active)"

[[record]]
compound = "C[C@H](NC(=O)C(C#N)=Cc1cccc(Br)n1)c1ccccc1"
experimental_value = "19.3 µM (active)"

[[record]]
compound = "O=C(O)C=Cc1ccc(Cn2ccnc2)cc1"
experimental_value = "inactive"

[[record]]
compound = "C=C1C[C@@]2(O)O[C@@]3(C[C@H]2C(C)C)[C@H](C)CC[C@H]13"
experimental_value = "inactive"

[[record]]
compound = "Nc1nc2c(c(=O)[nH]1)N(C=O)[C@H](CNc1ccc(C(=O)N[C@@H](CCC(=O)O)C(=O)O)cc1)CN2"
experimental_value = "27.3 µM (active)"

[[record]]
compound = "COc1cc(OC)cc(-c2ccc3ncc4ccc(=O)n(-c5ccc(N6CCNCC6)c(C(F)(F)F)c5)c4c3c2)c1"
experimental_value = "4.32 µM (active)"

[[record]]
compound = "C[C@]12CC[C@@H]3c4ccc(O)cc4CC[C@H]3[C@H]1CC[C@H]2O"
experimental_value = "24.3 µM (active)"

[[record]]
compound = "CNC(=O)c1ccc(Nc2cc(Nc3ccccc3S(=O)(=O)C(C)C)c3cc[nH]c3n2)nc1"
experimental_value = "0.544 µM (active)"


// field: Potency; key: OC[C@H]1OC(O)C[C@@H](O)[C@H]1O (stereo partly drawn) ; value = inactive

// field: Potency; key: `Cc1onc(-c2ccccc2)c1C(=O)N[C@@H]1C(=O)N2[C@@H](C(=O)O)C(C)(C)S[C@@H]12` ; value = inactive

// field: Potency; key: `CN[C@H](CC(C)C)C(=O)N[C@H]1C(=O)N[C@@H](CC(N)=O)C(=O)N[C@@H]2C(=O)N[C@H]3C(=O)N[C@H](C(=O)N[C@H](C(=O)O)c4cc(O)cc(O)c4-c4cc3ccc4O)[C@H](O)c3ccc(c(Cl)c3)Oc3cc2cc(c3O[C@@H]2O[C@H](CO)[C@@H](O)[C@H](O)[C@@H]2O[C@H]2C[C@](C)(N)[C@H](O)[C@H](C)O2)Oc2ccc(cc2Cl)[C@H]1O` ; value = inactive
